tested on: isolated rabbit skeletal muscle myosin (skeletal); assay: actomyosin steady state ATPase measurement, skeletal muscle myosin; assay type: biochemical; conditions: 50 μM (100 μM if racemate); ATPase activity
readout_label: % inhibition at 50 μM (or 100 μM if racemate) Skeletal (%)
Only the number, expressed in %, is required.

Name the recorded % inhibition at 50 μM (or 100 μM if racemate) Skeletal of the molecule listed here: O=C1c2ccncc2N=C2N(c3ccc(OC(F)(F)F)cc3)CCC12O (stereo not drawn)
93

Recall and state the measured % inhibition at 50 μM (or 100 μM if racemate) Skeletal for Cc1cc2c(s1)N=C1N(c3cccs3)CCC1(O)C2=O (stereo not drawn) .
96

Note % inhibition at 50 μM (or 100 μM if racemate) Skeletal for the molecule shown: Cc1cc2c(s1)N=C1N(c3ccc(C#N)cc3)CCC1(O)C2=O (stereo not drawn)
98

Please give measured % inhibition at 50 μM (or 100 μM if racemate) Skeletal of the following entry: Cc1cc2c(s1)N=C1N(c3ccccc3)CCC1(O)C2=O (stereo not drawn)
99

Kindly indicate its recorded % inhibition at 50 μM (or 100 μM if racemate) Skeletal. Item: Cc1cc2c(s1)N=C1N(c3ccc(OC(F)(F)F)cc3)CCC1(O)C2=O (stereo not drawn)
95

Specify measured % inhibition at 50 μM (or 100 μM if racemate) Skeletal for Cc1cc2c(s1)N=C1N(c3ccc(N)cc3)CCC1(O)C2=O (stereo not drawn) .
91

Assign % inhibition at 50 μM (or 100 μM if racemate) Skeletal to the following record: O=C1c2ccsc2N=C2N(c3ccc(N4CCOCC4)cc3)CCC12O (stereo not drawn)
95

Supply % inhibition at 50 μM (or 100 μM if racemate) Skeletal value. Item: Cc1cc2c(s1)N=C1N(c3ccc(CO)cc3)CCC1(O)C2=O (stereo not drawn)
96

Input O=C1c2ccncc2N=C2N(c3ccc(N4CCOCC4)cc3)CCC12O (stereo not drawn) , output reported % inhibition at 50 μM (or 100 μM if racemate) Skeletal.
56

====

biological target: recombinant human non-muscle myosin 2 NM2C (Homo sapiens); assay: actomyosin steady state ATPase measurement, NM2C; type: biochemical; details: read-out: % inhibition at 50 μM (or 100 μM if racemate) NM2C; 50 μM (100 μM if racemate); ATPase activity
Sequence (Q7Z406 whole entry): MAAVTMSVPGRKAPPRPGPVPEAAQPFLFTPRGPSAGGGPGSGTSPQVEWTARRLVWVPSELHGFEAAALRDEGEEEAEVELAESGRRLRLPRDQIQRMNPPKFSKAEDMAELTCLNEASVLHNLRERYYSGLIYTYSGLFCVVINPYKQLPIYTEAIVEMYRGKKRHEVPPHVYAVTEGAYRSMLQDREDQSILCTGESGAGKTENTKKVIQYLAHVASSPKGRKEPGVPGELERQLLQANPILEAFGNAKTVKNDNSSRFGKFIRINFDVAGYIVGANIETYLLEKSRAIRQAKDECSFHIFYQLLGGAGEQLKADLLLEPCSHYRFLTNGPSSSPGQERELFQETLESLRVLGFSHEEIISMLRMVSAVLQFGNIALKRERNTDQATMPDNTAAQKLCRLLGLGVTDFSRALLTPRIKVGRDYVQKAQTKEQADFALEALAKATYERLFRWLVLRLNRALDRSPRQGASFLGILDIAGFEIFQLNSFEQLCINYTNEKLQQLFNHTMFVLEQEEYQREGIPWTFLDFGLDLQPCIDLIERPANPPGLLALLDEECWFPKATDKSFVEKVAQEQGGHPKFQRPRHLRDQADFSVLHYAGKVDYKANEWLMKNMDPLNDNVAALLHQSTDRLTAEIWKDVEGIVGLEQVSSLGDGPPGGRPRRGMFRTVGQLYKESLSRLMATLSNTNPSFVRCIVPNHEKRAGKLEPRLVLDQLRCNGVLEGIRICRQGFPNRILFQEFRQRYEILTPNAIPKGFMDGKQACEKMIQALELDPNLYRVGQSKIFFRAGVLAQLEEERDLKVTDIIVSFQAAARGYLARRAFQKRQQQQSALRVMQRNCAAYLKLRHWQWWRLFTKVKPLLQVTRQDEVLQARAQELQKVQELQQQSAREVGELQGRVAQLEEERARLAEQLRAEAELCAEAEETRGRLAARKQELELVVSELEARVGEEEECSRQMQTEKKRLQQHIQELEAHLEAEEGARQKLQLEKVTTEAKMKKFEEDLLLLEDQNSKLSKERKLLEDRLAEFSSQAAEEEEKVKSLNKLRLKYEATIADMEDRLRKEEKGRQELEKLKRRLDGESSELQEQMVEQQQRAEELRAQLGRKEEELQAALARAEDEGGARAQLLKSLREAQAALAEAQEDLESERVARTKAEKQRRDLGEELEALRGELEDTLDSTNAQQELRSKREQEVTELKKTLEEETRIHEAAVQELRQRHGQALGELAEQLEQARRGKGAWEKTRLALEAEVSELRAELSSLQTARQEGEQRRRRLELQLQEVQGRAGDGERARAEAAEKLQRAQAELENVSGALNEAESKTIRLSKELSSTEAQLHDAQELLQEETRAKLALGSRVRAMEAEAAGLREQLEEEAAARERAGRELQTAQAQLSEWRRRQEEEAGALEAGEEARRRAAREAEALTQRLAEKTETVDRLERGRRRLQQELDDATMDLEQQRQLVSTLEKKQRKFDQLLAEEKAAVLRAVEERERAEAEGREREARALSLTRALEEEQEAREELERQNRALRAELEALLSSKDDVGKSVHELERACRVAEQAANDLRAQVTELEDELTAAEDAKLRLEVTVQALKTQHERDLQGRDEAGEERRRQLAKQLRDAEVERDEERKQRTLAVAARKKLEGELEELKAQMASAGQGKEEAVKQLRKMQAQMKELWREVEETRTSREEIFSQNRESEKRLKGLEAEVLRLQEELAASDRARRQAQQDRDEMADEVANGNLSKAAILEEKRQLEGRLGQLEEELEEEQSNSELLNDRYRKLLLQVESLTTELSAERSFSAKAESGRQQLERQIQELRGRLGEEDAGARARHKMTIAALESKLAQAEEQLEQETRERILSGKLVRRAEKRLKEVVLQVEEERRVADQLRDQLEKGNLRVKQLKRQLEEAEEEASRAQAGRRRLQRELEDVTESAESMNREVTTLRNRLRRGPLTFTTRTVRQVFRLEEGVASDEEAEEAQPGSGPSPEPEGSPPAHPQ
Give inhibition at 50 µM for every item shown.
# value in %; strip the unit string

Print recombinant human non-muscle myosin 2 NM2C (Homo sapiens) inhibition at 50 µM for O=C1c2ccsc2N=C2N(c3ccccc3)CCC12O (centres unmarked) .
55

Return reported inhibition at 50 µM for target or system recombinant human non-muscle myosin 2 NM2C (Homo sapiens), item Cc1cc2c(s1)N=C1N(c3ccc(N4CCOCC4)cc3)CCC1(O)C2=O (centres unmarked) .
21

// fetch inhibition at 50 µM for O=C1c2ccsc2N=C2N(c3cccs3)CC[C@@]12O ; system: recombinant human non-muscle myosin 2 NM2C (Homo sapiens)
11

Please report the measured inhibition at 50 µM for COc1ccc(N2CC[C@@]3(O)C(=O)c4ccsc4N=C23)cn1 tested on recombinant human non-muscle myosin 2 NM2C (Homo sapiens).
18

Given O=C1c2ccsc2N=C2N(c3ccc(N4CCOCC4)cc3)CCC12O (centres unmarked) , report its inhibition at 50 µM on recombinant human non-muscle myosin 2 NM2C (Homo sapiens).
14

Fill in inhibition at 50 µM for O=C1c2ccsc2N=C2N(c3ccc(CO)cc3)CC[C@@]12O tested with recombinant human non-muscle myosin 2 NM2C (Homo sapiens).
51

# assay system recombinant human non-muscle myosin 2 NM2C (Homo sapiens): give inhibition at 50 µM of O=C1c2ccncc2N=C2N(c3ccc(OC(F)(F)F)cc3)CCC12O (centres unmarked)
38

System recombinant human non-muscle myosin 2 NM2C (Homo sapiens). Read-out inhibition at 50 µM. Item CC(=O)c1ccc(N2CC[C@@]3(O)C(=O)c4ccsc4N=C23)cc1 . Report value.
34

Name the value of inhibition at 50 µM reported for O=C1c2cccnc2N=C2N(c3ccccc3)CCC12O (centres unmarked) when tested on recombinant human non-muscle myosin 2 NM2C (Homo sapiens).
13

For recombinant human non-muscle myosin 2 NM2C (Homo sapiens), give inhibition at 50 µM of the listed molecule: O=C1c2ccncc2N=C2N(c3ccccc3)CCC12O (centres unmarked)
9

Enter inhibition at 50 µM (test system recombinant human non-muscle myosin 2 NM2C (Homo sapiens)) for N#Cc1ccc(N2CC[C@@]3(O)C(=O)c4ccsc4N=C23)cc1
54

Provide inhibition at 50 µM, system recombinant human non-muscle myosin 2 NM2C (Homo sapiens), entry O=C1c2ccsc2N=C2N(c3ccc(OC(F)(F)F)cc3)CC[C@@]12O
56

Look up and report inhibition at 50 µM, with recombinant human non-muscle myosin 2 NM2C (Homo sapiens) as system, for Cc1cc2c(s1)N=C1N(c3ccc(OC(F)(F)F)cc3)CCC1(O)C2=O (centres unmarked)
82

Please report inhibition at 50 µM with recombinant human non-muscle myosin 2 NM2C (Homo sapiens) for item COc1ccc(N2CC[C@@]3(O)C(=O)c4ccsc4N=C23)cc1 .
67

// fetch inhibition at 50 µM; item: CC(=O)c1ccc(N2CCC3(O)C(=O)c4cc(C)sc4N=C23)cc1 (centres unmarked) ; system: recombinant human non-muscle myosin 2 NM2C (Homo sapiens)
74

Send back recombinant human non-muscle myosin 2 NM2C (Homo sapiens) inhibition at 50 µM of O=C1c2ncccc2N=C2N(c3ccccc3)CCC12O (centres unmarked) only.
41

Give inhibition at 50 µM for Cc1cc2c(s1)N=C1N(c3ccc(CO)cc3)CCC1(O)C2=O (centres unmarked) tested on recombinant human non-muscle myosin 2 NM2C (Homo sapiens).
80

Name the recorded inhibition at 50 µM of Cc1cc2c(s1)N=C1N(c3ccc(C#N)cc3)CCC1(O)C2=O (centres unmarked) , assay system recombinant human non-muscle myosin 2 NM2C (Homo sapiens).
91

Recall the reported inhibition at 50 µM of Cc1cc2c(s1)N=C1N(c3cccs3)CC[C@@]1(O)C2=O when tested on recombinant human non-muscle myosin 2 NM2C (Homo sapiens).
65

Give the observed inhibition at 50 µM of Cc1ccc(N2CC[C@@]3(O)C(=O)c4ccsc4N=C23)cc1 for recombinant human non-muscle myosin 2 NM2C (Homo sapiens).
69

Please look at Nc1ccc(N2CC[C@@]3(O)C(=O)c4ccsc4N=C23)cc1 and tell me its recorded inhibition at 50 µM on recombinant human non-muscle myosin 2 NM2C (Homo sapiens).
38

Fill in: inhibition at 50 µM on recombinant human non-muscle myosin 2 NM2C (Homo sapiens), entry O=C1c2sccc2N=C2N(c3ccccc3)CCC12O (centres unmarked)
37

Name the value of inhibition at 50 µM reported for N#CCc1ccc(N2CC[C@@]3(O)C(=O)c4ccsc4N=C23)cc1 when tested on recombinant human non-muscle myosin 2 NM2C (Homo sapiens).
56

Return reported inhibition at 50 µM for target or system recombinant human non-muscle myosin 2 NM2C (Homo sapiens), item COc1ccc(N2CCC3(O)C(=O)c4cc(C)sc4N=C23)cn1 (centres unmarked) .
89

Provide inhibition at 50 µM, tested on recombinant human non-muscle myosin 2 NM2C (Homo sapiens), for Cc1cc2c(s1)N=C1N(c3cccs3)CCC1(O)C2=O (centres unmarked) .
98

# return inhibition at 50 µM for COc1ccc(N2CCC3(O)C(=O)c4cc(C)sc4N=C23)cc1 (centres unmarked) , test system: recombinant human non-muscle myosin 2 NM2C (Homo sapiens)
89

State, for recombinant human non-muscle myosin 2 NM2C (Homo sapiens), measured inhibition at 50 µM of the molecule listed here: Cc1cc2c(s1)N=C1N(c3ccccc3)CCC1(O)C2=O (centres unmarked)
84

Fill: inhibition at 50 µM (recombinant human non-muscle myosin 2 NM2C (Homo sapiens)) for this molecule Cc1cc2c(s1)N=C1N(c3ccc(CC#N)cc3)CCC1(O)C2=O (centres unmarked)
90

Check recombinant human non-muscle myosin 2 NM2C (Homo sapiens) data and give inhibition at 50 µM for Cc1cc2c(s1)N=C1N(c3ccc(N)cc3)CCC1(O)C2=O (centres unmarked) .
56
